Biological target: T1, IL-2Rβ/γ on M07e cells (human, UniProt P14784 27-551; P31785 23-369)
T1 sequence (looked up) 1: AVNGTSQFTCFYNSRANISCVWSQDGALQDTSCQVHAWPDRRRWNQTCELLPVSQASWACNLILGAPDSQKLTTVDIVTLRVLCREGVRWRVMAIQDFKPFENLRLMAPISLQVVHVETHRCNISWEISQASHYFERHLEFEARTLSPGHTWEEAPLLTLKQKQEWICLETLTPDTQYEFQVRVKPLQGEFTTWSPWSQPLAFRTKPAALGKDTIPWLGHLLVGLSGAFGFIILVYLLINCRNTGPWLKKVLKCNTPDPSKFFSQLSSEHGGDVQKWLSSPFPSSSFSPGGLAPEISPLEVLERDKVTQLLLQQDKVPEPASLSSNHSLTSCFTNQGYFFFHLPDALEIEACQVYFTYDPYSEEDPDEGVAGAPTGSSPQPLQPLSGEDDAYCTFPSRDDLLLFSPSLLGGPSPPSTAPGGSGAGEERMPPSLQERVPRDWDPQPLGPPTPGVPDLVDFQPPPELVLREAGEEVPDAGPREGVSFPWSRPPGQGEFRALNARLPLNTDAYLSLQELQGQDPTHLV
T1 sequence (looked up) 2: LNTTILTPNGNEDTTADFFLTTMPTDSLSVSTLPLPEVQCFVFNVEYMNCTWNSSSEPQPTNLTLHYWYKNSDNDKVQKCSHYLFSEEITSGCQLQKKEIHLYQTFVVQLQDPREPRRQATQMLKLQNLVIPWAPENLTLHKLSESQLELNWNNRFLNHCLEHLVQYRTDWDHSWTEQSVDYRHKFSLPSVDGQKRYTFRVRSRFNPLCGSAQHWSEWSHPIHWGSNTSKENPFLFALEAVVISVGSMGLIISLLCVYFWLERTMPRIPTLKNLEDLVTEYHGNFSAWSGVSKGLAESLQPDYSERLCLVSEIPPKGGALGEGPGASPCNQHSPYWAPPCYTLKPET
Experiment: cell-based or functional assay
observed.property: M07e cell proliferation activity (%) at 0.46 nM

{"binder": "A-N88D (Fc fusion, also called PD-1-IL-2v (N88D); not shown: IgG1 hinge (C220S) + Fc Knob chain (L234A, L235A, S354C, T366W, EU); D356/L358 or E356/M358 ver; IgG1 hinge (C220S) + Fc Hole chain (L234A, L235A, Y349C, T366S, L368A, Y407V; may have H435R, Y436F; EU)) chain (part 1 of 2): EVQLVESGGGLVQPGGSLRLSCAASGLTFSDYSMSWYRQAPGKGRELVAIISGSGVITHYVDSVKGRFTISRDNAKNTLYLQMRSLRAEDTAVYYCRAVSDWEDYWGQGTQVTVSS chain (part 2 of 2): GGGGSGGGGSGGGGSAPASSSTKKTQLQLEHLLLDLQMILQGISNYKNPKLTRMLTAKFYMPKKATELKHLQCLEEELKPLEEVLQGAQSKNFHLRPRDLISDINVIVLELKGSETTFMCEYADETATIVEFLNRWITFAQSIISTLT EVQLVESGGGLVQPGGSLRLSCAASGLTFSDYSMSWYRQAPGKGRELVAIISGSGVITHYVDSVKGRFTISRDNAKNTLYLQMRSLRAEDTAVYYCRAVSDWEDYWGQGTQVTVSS", "reported.result": "-1.7%"}
